system: glutathione-S-transferase (GST) tagged LXRalpha LBD (ligand binding domain) (Homo sapiens)
Construct: purchased Invitrogen pv4655
procedure_text: biochemical
condition_details: LXR alpha IP, potency (Inflection Point), compound-induced co-activator recruitment, TR-FRET
endpoint: EC50 (nM)

{"compound": "COc1cccc(C(O)(C(=O)N2CCC(C3CC3(C)COc3ccc(C(=O)N(C)C)c(Cl)c3)CC2)C(F)(F)F)c1 (single isomer, unassigned) [Example 16-1]", "scale_unit": "nM", "EC50": 955}
{"compound": "CN(C)C(=O)c1ccc(O[C@H]2C[C@@H](CC3CCN(C(=O)[C@](O)(c4cccc(OC(F)F)c4)C(F)(F)F)CC3)C2)cc1Cl (single isomer, unassigned) [Example 37-9]", "scale_unit": "nM", "EC50": 1020}
{"compound": "CN(C)C(=O)c1ccc(OCCCCC2CCN(C(=O)C(O)(c3ccccc3)C(F)(F)F)CC2)cc1Cl (single isomer, unassigned) [Example 3-8]", "scale_unit": "nM", "EC50": 173}

a. O=C(c1ccc(OCCCCC2CCN(C(=O)[C@](O)(c3ccccc3)C(F)(F)F)CC2)cc1Cl)N1CCC[C@H]1CO (single isomer, unassigned) [Example 8-7]
b. CN(C)C(=O)c1ccc(OCCCCC2CCN(S(=O)(=O)c3ccccc3C(F)(F)F)CC2)nc1Cl [Example 7-1]
c. CN(C)C(=O)c1ccc(O[C@H]2C[C@@H](CC3CCN(C(=O)[C@](O)(c4cc(F)cc(Cl)c4)C(F)(F)F)CC3)C2)cc1Cl (single isomer, unassigned) [Example 37-10]
-- ask Arrange the 3 compounds by rising EC50, starting with the smallest. To answer, write out the labels according to the requested order.
-- reply a, c, b

----------
system: glutathione-S-transferase (GST) tagged LXRalpha LBD (ligand binding domain) (Homo sapiens)
Construct: purchased Invitrogen pv4655
Sequence (Q13133 209-447 limits assumed): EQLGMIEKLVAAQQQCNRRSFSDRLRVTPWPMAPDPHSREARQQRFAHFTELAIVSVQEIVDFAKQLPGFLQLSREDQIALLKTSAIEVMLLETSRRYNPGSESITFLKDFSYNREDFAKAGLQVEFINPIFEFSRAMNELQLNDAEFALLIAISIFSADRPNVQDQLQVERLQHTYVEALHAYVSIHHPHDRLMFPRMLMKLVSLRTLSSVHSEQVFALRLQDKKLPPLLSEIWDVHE
procedure_text: biochemical
condition_details: read-out: LXR alpha actiivty at max dose, efficacy (% Emax) in relation to reference dual agonist T0901317
endpoint: Emax (%)

{"molecule": "CC(C)[C@@](O)(C(=O)N1CCC2(CC1)C[C@H]2CCOc1ccc(C(=O)N(C)C)c(Cl)c1)C(F)(F)F (single isomer, unassigned)", "system": "glutathione-S-transferase (GST) tagged LXRalpha LBD (ligand binding domain) (Homo sapiens)", "scale_unit": "%", "Emax": 37}
{"molecule": "CN(C)C(=O)c1ccc(OCC[C@@H]2CC23CCN(C(=O)C2(c4ccccc4Br)CCC2)CC3)cc1Cl (single isomer, unassigned)", "system": "glutathione-S-transferase (GST) tagged LXRalpha LBD (ligand binding domain) (Homo sapiens)", "scale_unit": "%", "Emax": 35}
{"molecule": "CN(C)C(=O)c1ccc(OCCCCC2CCN(C(=O)C(O)(c3cccc(Cl)c3)C(F)(F)F)CC2)cc1Cl (single isomer, unassigned)", "system": "glutathione-S-transferase (GST) tagged LXRalpha LBD (ligand binding domain) (Homo sapiens)", "scale_unit": "%", "Emax": 37}
